Data origin, for the record: patent US7759373B2

Attribute: EC50
# Test system: isolated rabbit urinary bladder
# ASSAY OVERVIEW: Relaxation effect on potassium-induced contraction of isolated rabbit urinary bladder
# Assay type: cell-based
# EXPERIMENTAL CONDITIONS: Oryctolagus cuniculus; 50% relaxation concentration; high-K+ (30 mM) pre-contracted rabbit bladder strips; relaxation as percentage of the maximum produced by 0.1 mM papaverine; read-out: EC50 value range

Solved entries (count: 6):
[
  {
    "COMPOUND": "CN(C)c1[nH]c(-c2ccc(F)cc2)nc1-c1ccccc1.Cl [Preparation example 108, hydrochloride]",
    "READOUT TYPE": "EC50",
    "REPORTED RESULT": "1 to 3 µM"
  },
  {
    "COMPOUND": "COc1ccc(-c2nc(CC(=O)O)c(-c3ccsc3)o2)cc1C",
    "READOUT TYPE": "EC50",
    "REPORTED RESULT": "1 to 3 µM"
  },
  {
    "COMPOUND": "CCCc1nc(-c2ccc(F)cc2)[nH]c1-c1ccccn1",
    "READOUT TYPE": "EC50",
    "REPORTED RESULT": "0.5 to 1 µM"
  },
  {
    "COMPOUND": "FCCc1nc(-c2ccc(F)cc2)[nH]c1-c1ccccc1",
    "READOUT TYPE": "EC50",
    "REPORTED RESULT": "≤ 0.5 µM"
  },
  {
    "COMPOUND": "CSc1ncc(-c2nc(-c3ccc(Cl)s3)c(CC(=O)O)s2)cn1",
    "READOUT TYPE": "EC50",
    "REPORTED RESULT": "1 to 3 µM"
  },
  {
    "COMPOUND": "CCc1nc(-c2ccc(F)cc2)[nH]c1-c1ccccc1OC",
    "READOUT TYPE": "EC50",
    "REPORTED RESULT": "≤ 0.5 µM"
  }
]

Now for the compound whose EC50 we want.
Can you look up the measured EC50 of CSc1ncc(-c2nc(CC(=O)O)c(-c3ccc(Cl)c(F)c3)o2)cn1 for me?
0.5 to 1 µM

* * *

Where a name gives a salt, the structure may show the parent alone.
Here the recorded melting point is given for each entry.

// below: answered compounds
[
  {
    "COMPOUND": "CCOC(=O)Cc1nc(-c2ccc(OC)c(C)c2)oc1-c1ccsc1",
    "melting point": "84 to 86 °C"
  },
  {
    "COMPOUND": "CCCc1nc(-c2ccc(F)cc2)[nH]c1-c1ccccc1 (as salt: HCl)",
    "melting point": "224 to 226 °C"
  },
  {
    "COMPOUND": "COCc1nc(-c2ccc(C)nc2)[nH]c1-c1cccnc1 (as salt: HCl)",
    "melting point": "251 to 255 °C"
  },
  {
    "COMPOUND": "CCCc1nc(-c2ccc(F)cc2)[nH]c1-c1ccc(F)cc1 (as salt: HCl)",
    "melting point": "233 to 235 °C"
  },
  {
    "COMPOUND": "CCCc1nc(-c2ccccc2[N+](=O)[O-])[nH]c1-c1ccccc1 (as salt: HCl)",
    "melting point": "233 to 236 °C"
  }
]

Next:
Could you tell me which melting point is on file for CCc1nc(-c2cccc(Cl)c2)[nH]c1-c1cccnc1 (as salt: HCl) ?
223 to 224 °C

* * *

This section presents compounds with their documented pEC50 values.
# Tested on: isolated rabbit urinary bladder
# ASSAY OVERVIEW: Relaxation effect on potassium-induced contraction of isolated rabbit urinary bladder
# Assay type: cell-based
# EXPERIMENTAL CONDITIONS: Oryctolagus cuniculus; 50% relaxation concentration; high-K+ (30 mM) pre-contracted rabbit bladder strips; relaxation as percentage of the maximum produced by 0.1 mM papaverine; read-out: EC50 value range
pEC50: −log10 of the molar value.

[
  {
    "COMPOUND": "CCc1nc(-c2ccc(F)cc2)[nH]c1-c1ccsc1",
    "pEC50": "5.52 to 6.00"
  },
  {
    "COMPOUND": "CCCc1nc(-c2ccc(Cl)cc2)[nH]c1-c1ccccc1",
    "pEC50": "5.52 to 6.00"
  },
  {
    "COMPOUND": "CC(C)c1ccc(-c2oc(-c3ccc(F)cc3)nc2CC(=O)O)cc1",
    "pEC50": "5.52 to 6.00"
  }
]

Suppose we examine the compound Cc1ccc(-c2nc(CC(=O)O)c(-c3ccccc3)o2)cc1 ; what pEC50 value has been reported?
5.52 to 6.00

Proceed to Cc1ccc(-c2nc(CC(=O)O)c(-c3cccs3)o2)s1
≥ 6.30

Another compound to look at: O=C([O-])Cc1oc(-c2ccc(F)cc2)nc1-c1ccc(Cl)s1.[Na+] [Preparation Example 487, acetic acid sodium salt]
6.00 to 6.30

* * *

Where a name gives a salt, the structure may show the parent alone.
READOUT TYPE: melting point

Here are 3 molecules together with their reported answers.
[
  {
    "MOLECULE": "OCc1nc(-c2ccc(F)cc2)[nH]c1-c1cccnc1 [Preparation example 113]",
    "melting point": "225 to 228 °C"
  },
  {
    "MOLECULE": "CCOC(=O)Cc1nc(-c2ccc(F)cc2)oc1-c1ccccc1F [Preparation Example 161]",
    "melting point": "88 to 89 °C"
  },
  {
    "MOLECULE": "CCc1nc(-c2ccccc2Cl)[nH]c1-c1cccnc1 (as salt: HCl) [Preparation example 12]",
    "melting point": "221 to 223 °C"
  }
]

Entry CCCc1nc(-c2ccc([N+](=O)[O-])cc2)[nH]c1-c1cccs1 (as salt: HCl) [Preparation example 9] has what melting point?
278 to 281 °C

Would you kindly repeat that for CCc1nc(-c2ccc(F)cc2)[nH]c1-c1ncccn1 (as salt: HCl) [Preparation example 50] ?
190 to 192 °C

Try this molecule next: Cc1ccc(-c2ncc(-c3cccnc3)[nH]2)cn1 (as salt: HCl) [Preparation example 26]
269 to 273 °C

Let us now turn to CCCc1nc(-c2ccc(F)cc2)[nH]c1-c1ccccc1C(N)=O (as salt: HCl) [Preparation example 101]
186 to 189 °C

Please give the result for CCOC(=O)c1cc(-c2nc(CC)c(-c3cccnc3)[nH]2)cs1 [Preparation example 11] too.
187 to 189 °C

* * *

# Test system: rhythmic bladder contractions induced by substance P
# ASSAY OVERVIEW: Inhibitory effect on the rhythmic bladder contractions induced by substance P in anesthetized rats
# Format: in vivo, rat
# EXPERIMENTAL CONDITIONS: time during which frequency of rhythmic contraction was completely inhibited, 0.25 mg/kg of the compound, substance P infusion

[
  {
    "CHEMICAL STRING": "CCONC(=O)Cc1nc(-c2ccc(F)cc2)oc1-c1ccsc1",
    "100% inhibition time range": "C (A≧20>B≧10>C (minute))"
  },
  {
    "CHEMICAL STRING": "O=C(O)Cc1nc(-c2ccc3occc3c2)oc1-c1cccs1",
    "100% inhibition time range": "B (A≧20>B≧10>C (minute))"
  },
  {
    "CHEMICAL STRING": "CCc1nc(-c2ccc(F)cc2)[nH]c1-c1cncs1",
    "100% inhibition time range": "B (A≧20>B≧10>C (minute))"
  },
  {
    "CHEMICAL STRING": "CCc1[nH]c(-c2ccc(F)cc2)nc1C(=O)c1ccccn1",
    "100% inhibition time range": "C (A≧20>B≧10>C (minute))"
  }
]

* * *

# Tested on: rhythmic bladder contractions induced by substance P
# ASSAY OVERVIEW: Inhibitory effect on the rhythmic bladder contractions induced by substance P in anesthetized rats
# Type: in vivo, rat
# EXPERIMENTAL CONDITIONS: time during which frequency of rhythmic contraction was completely inhibited, 0.25 mg/kg of the compound, substance P infusion
READOUT TYPE: 100% inhibition time range

Consider the following illustrative entries.
[
  {
    "COMPOUND": "O=C(O)Cc1nc(-c2ccc(F)cc2)oc1-c1ccc(F)c(F)c1 [Preparation Example 166]",
    "100% inhibition time range": "B (A≧20>B≧10>C (minute))"
  },
  {
    "COMPOUND": "O=C(O)Cc1nc(-c2ccc(Cl)cc2)oc1-c1ccc(Br)s1 [Preparation Example 245]",
    "100% inhibition time range": "C (A≧20>B≧10>C (minute))"
  },
  {
    "COMPOUND": "Cl.N#CCCc1[nH]c(-c2ccc(F)cc2)nc1-c1ccccc1O [Preparation Example 350]",
    "100% inhibition time range": "B (A≧20>B≧10>C (minute))"
  },
  {
    "COMPOUND": "COC(=O)c1nc(-c2ccc(F)cc2)oc1-c1ccsc1 [Preparation Example 622]",
    "100% inhibition time range": "B (A≧20>B≧10>C (minute))"
  }
]

Please look at the following compound next.
Record request: 100% inhibition time range value, item O=C(Cc1nc(-c2ccc(F)cc2)oc1-c1ccsc1)Nc1cccnc1 [Preparation Example 376]
C (A≧20>B≧10>C (minute))
